IC50 values, listed per item
assay procedure: Compound was evaluated for its inhibitory potency against Opioid receptor delta 1 of Guinea pig ileum
Give just the number in µM; leave the unit off.

Bench note: what IC50 did C[C@@H](c1ccc(O)cc1)[C@H](N)C(=O)N[C@H]1C(=O)NCC(=O)N[C@@H](Cc2ccccc2)C(=O)N[C@@H](C(=O)O)C(C)(C)SSC1(C)C show?
7.18

Try C[C@H](c1ccc(O)cc1)[C@H](N)C(=O)N[C@H]1C(=O)NCC(=O)N[C@@H](Cc2ccccc2)C(=O)N[C@@H](C(=O)O)C(C)(C)SSC1(C)C next.
3.4

Try Cc1cc(O)ccc1C[C@@H](N)C(=O)N[C@H]1C(=O)NCC(=O)N[C@@H](Cc2ccccc2)C(=O)N[C@@H](C(=O)O)C(C)(C)SSC1(C)C next.
6.61
